Values compiled from PubChem BioAssay (NCI).

System: OVCAR-4 ovarian
Assay: NCI tumour cell line growth inhibition, 48 h
Where a SMILES comes first, the peptide text is derived from it. The star is where a group is joined. Fmoc = O=C(OCC1c2ccccc2-c2ccccc21)*; Boc = CC(C)(C)OC(=O)*
As shown below, each of these compounds has a reported TGI value.

Reference set (6 entries):
OCCN1CCN2C=C(C3CCCC4N(CCO)CCN34)CCC21 (stereo unspecified); > 100 µM
C[C@@H](NC(=O)c1ccc(CNC(=O)/C=C/c2cccc(Oc3ccccc3)c2)cc1)c1ccccc1; > 100 µM
CC(C)(C)OC(=O)NCCCCC(NC(=O)C(Cc1c[nH]c2ccccc12)NC(=O)OCC1c2ccccc2-c2ccccc21)C(=O)N1CCCC1C(=O)NCC(N)=O (stereo unspecified) (Fmoc-WK(Boc)PG-NH2; configuration not given here); > 100 µM
O=C(Nc1ccccc1)c1cc(S(=O)(=O)Nc2nc3ccccc3o2)c(SCc2ccccc2)cc1Cl; > 100 µM
O=C(CCCl)NNC1=NCCCN1; > 100 µM
CSc1nc2c(ncn2C2OCC(O)C(O)C2O)c(=O)n1C (stereo unspecified); > 100 µM

Lookup result for CC(C)(CCCCC(C)(C)[N+](C)(C)C)[N+](C)(C)C ; measured TGI: > 100 µM

Lookup result for COc1ccc(/C=C2\CCC/C(=C\c3ccc(O)c(CN4CCCCC4)c3)C2=O)cc1 ; measured TGI: > 79.5 µM

Lookup result for CCOc1cccc(-c2nc(N)nc(Nc3ccccc3SSc3ccccc3Nc3nc(N)nc(-c4cccc(OCC)c4)n3)n2)c1 ; measured TGI: > 100 µM

Lookup result for COC(=O)[C@H](CC(C)C)Nc1c(O)c2c(c(O)c1Cl)C(=O)C=CC2=O ; measured TGI: > 10 µM

Lookup result for OCc1c[te]c(-c2ccccc2)c1 ; measured TGI: > 100 µM
